biological target: UniProt:Q96RI0; assay: FLIPR assay in PAR4-expressing HEK293 cells (calcium mobilization); type: cell-based; details: PAR4 antagonist activity, FLIPR assay as described in Example A
Could you please report measured log10 IC50 for the items listed next?
// stored as log10 of IC50 expressed in nM

I'd like to know its log10 IC50. The compound in question is COc1cc(OCc2cccc(-c3cncnc3)c2)c2cc(-c3cn4nc(C(C)(F)F)sc4n3)oc2c1 [Example 63]
0.61

// same read-out, input: COc1cc(OCc2cncc(-c3ccccc3)c2)c2cc(-c3cn4nc(OC)sc4n3)oc2c1 [Example 72]
0.86

// same read-out, input: COc1ccc(COC(C)c2ccc(-c3cccc(COc4cc(OC)cc5oc(-c6cn7nc(OC)sc7n6)cc45)c3)nc2)cc1 (centres unmarked) [Example 61]
0.00

// same read-out, input: COc1cc(COc2cc(OC)cc3oc(-c4cn5nc(OC)sc5n4)cc23)cc(-c2cnc(OC)nc2)c1 [Example 71]
-0.30

// same read-out, input: COc1cc(OCc2cccc(-c3coc(C(N)=O)c3)c2)c2cc(-c3cn4nc(OC)sc4n3)oc2c1 [Example 41]
0.94

// same read-out, input: COc1cc(OCc2cncc(-c3ccoc3)c2)c2cc(-c3cn4nc(OC)sc4n3)oc2c1 [Example 65]
0.03

// same read-out, input: COc1ccc(-c2cccc(COc3cc(OC)cc4oc(-c5cn6nc(OC)sc6n5)cc34)c2)c(C)c1 [Example 8]
0.23

// same read-out, input: COc1cc(OCc2cccc(-c3ccc(F)cn3)c2)c2cc(-c3cn4nc(OC)sc4n3)oc2c1 [Example 14]
0.18

###

molecular target: PAR4 (Homo sapiens (Human), UniProt Q96RI0); assay: FLIPR assay in PAR4-expressing HEK293 cells (calcium mobilization); assay type: cell-based; conditions: PAR4 antagonist activity, FLIPR assay as described in Example A
Sequence (Q96RI0 18-385): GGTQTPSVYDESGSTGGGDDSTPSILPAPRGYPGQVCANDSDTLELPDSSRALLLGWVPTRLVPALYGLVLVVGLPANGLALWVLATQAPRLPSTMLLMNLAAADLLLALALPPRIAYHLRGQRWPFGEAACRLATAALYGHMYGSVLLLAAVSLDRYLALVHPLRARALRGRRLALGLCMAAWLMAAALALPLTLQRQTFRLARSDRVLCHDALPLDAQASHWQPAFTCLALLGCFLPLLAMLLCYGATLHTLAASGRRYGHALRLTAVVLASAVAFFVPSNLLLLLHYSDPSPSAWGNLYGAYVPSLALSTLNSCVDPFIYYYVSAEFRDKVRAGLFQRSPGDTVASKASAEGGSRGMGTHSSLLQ
Could you please report measured IC50 for the items listed next?
Quick reminder: number only, in nM, skip the unit.

I'd like to know its IC50. The compound in question is `COc1cc(OCc2cccc(-c3cnc(OC)nc3)c2)c2cc(-c3cn4nc(C)ccc4n3)oc2c1`
1.32

// same read-out, input: `COc1cc(OCc2cccc(C3(F)CCOCC3)n2)c2cc(-c3cn4nc(OC)sc4n3)oc2c1`
0.35

// same read-out, input: `COc1cc(OCc2cccc(-c3ccc(Cl)cn3)c2)c2cc(-c3cn4nc(OC)sc4n3)oc2c1`
0.38

// same read-out, input: `COc1cc(OCc2cccc(-c3ncc(F)cc3F)c2)c2cc(-c3cn4nc(OC)sc4n3)oc2c1`
0.67

###

biological target: PAR4 (Homo sapiens (Human), UniProt Q96RI0); assay: FLIPR assay in PAR4-expressing HEK293 cells (calcium mobilization); format: cell-based; settings: PAR4 antagonist activity, FLIPR assay as described in Example A
Sorting guide: entries reporting IC50 beneath 1 nM go in the label 1 pile, the rest go in the label 0 pile.

Please let me know if `COc1cc(OCc2cccc(-c3cnn(C)c3)c2)c2cc(-c3cn4nc(OC)sc4n3)oc2c1` shows IC50 below 1 nM.
label 0

// same read-out, input: `COc1cc(OCc2cccc(C3(OC)CCOCC3)n2)c2cc(-c3cn4nc([C@H](C)F)sc4n3)oc2c1`
label 1

// same read-out, input: `COc1cc(OCc2ccnc(-c3cccc(C#N)c3)n2)c2cc(-c3cn4nc(OC)sc4n3)oc2c1`
label 0

// same read-out, input: `COc1cc(OCc2ccnc(C3(c4ccccc4)CC3)n2)c2cc(-c3cn4nc(OC)sc4n3)oc2c1`
label 0

// same read-out, input: `COc1cc(OCc2cccc(-c3cnc4ccccn34)c2)c2cc(-c3cn4nc(OC)sc4n3)oc2c1`
label 0

// same read-out, input: `COc1cc(OCc2cccc(-c3ccc(Cl)nc3)n2)c2cc(-c3cn4nc(OC)sc4n3)oc2c1`
label 0

// same read-out, input: `COc1cc(OCc2ccnc(-c3ccc(C(=O)N(C)C)cc3)n2)c2cc(-c3cn4nc(OC)sc4n3)oc2c1`
label 1

// same read-out, input: `COc1cc(OCc2cccc(-c3ncc(Cl)cc3Cl)c2)c2cc(-c3cn4nc(OC)sc4n3)oc2c1`
label 0

// same read-out, input: `COc1cc(OCc2cccc(-c3ncc(Cl)cc3F)c2)c2cc(-c3cn4nc(OC)sc4n3)oc2c1`
label 0

// same read-out, input: `COc1cc(OCc2cccc(C3(O)CCOCC3)n2)c2cc(-c3cn4nc(OC)sc4n3)oc2c1`
label 1

// same read-out, input: `COc1cc(OCc2cccc(C3CCOCC3)c2)c2cc(-c3cn4nc(OC)sc4n3)oc2c1`
label 1

// same read-out, input: `COc1cc(OCc2cccc(-c3ccc4nsnc4c3)c2)c2cc(-c3cn4nc(OC)sc4n3)oc2c1`
label 0

// same read-out, input: `COc1cc(OCc2cccc(-c3ccc(C(=O)N4CCOCC4)nc3)c2)c2cc(-c3cn4nc(OC)sc4n3)oc2c1`
label 0

// same read-out, input: `COc1cc(OCc2cccc(-c3ccsc3)c2)c2cc(-c3cn4nc(OC)sc4n3)oc2c1`
label 0

// same read-out, input: `COc1cc(OCc2cc(F)cc(-c3cnc(OC)nc3)c2)c2cc(-c3cn4nc(OC)sc4n3)oc2c1`
label 1

// same read-out, input: `COc1cc(OCc2cccc(-c3ccc(C)cn3)c2)c2cc(-c3cn4nc(OC)sc4n3)oc2c1`
label 0

// same read-out, input: COc1cc(OCc2ccnc(C3COc4ccccc4O3)n2)c2cc(-c3cn4nc(OC)sc4n3)oc2c1 (stereo not drawn)
label 1

// same read-out, input: `COc1cc(OCc2cccc(-c3ccc(F)nc3)c2)c2cc(-c3cn4nc(OC)sc4n3)oc2c1`
label 0

// same read-out, input: `COCOc1cnc(-c2cccc(COc3cc(OC)cc4oc(-c5cn6nc(OC)sc6n5)cc34)c2)cn1`
label 0

// same read-out, input: `COc1cc(COc2cc(OC)cc3oc(-c4cn5nc(OC)sc5n4)cc23)cc(-c2ccc(Cl)nc2)c1`
label 1

// same read-out, input: `COc1cc(OCc2ccnc(-c3csc(C)n3)n2)c2cc(-c3cn4nc(OC)sc4n3)oc2c1`
label 1

// same read-out, input: `COc1cc(OCc2cccc(-c3ccc(C(=O)N(C)C)cc3)n2)c2cc(-c3cn4nc(OC)sc4n3)oc2c1`
label 1

// same read-out, input: `COc1cc(OCc2cccc(-c3ccc(F)cc3F)c2)c2cc(-c3cn4nc(OC)sc4n3)oc2c1`
label 0

// same read-out, input: `COc1cc(OCc2cccc(-c3cccnc3)c2)c2cc(-c3cn4nc(OC)sc4n3)oc2c1`
label 0

// same read-out, input: `COc1cc(OCc2cccc(-c3cccnc3F)c2)c2cc(-c3cn4nc(OC)sc4n3)oc2c1`
label 0

// same read-out, input: `COc1cc(OCc2cccc(-c3ncccc3C#N)c2)c2cc(-c3cn4nc(OC)sc4n3)oc2c1`
label 0

// same read-out, input: `COc1cc(OCc2cccc(-c3ccc4nncn4c3)c2)c2cc(-c3cn4nc(OC)sc4n3)oc2c1`
label 0

// same read-out, input: `COc1ccc(-c2cc(F)cc(COc3cc(OC)cc4oc(-c5cn6nc(OC)sc6n5)cc34)c2)nc1`
label 1

// same read-out, input: `COc1cc(OCc2ccnc(-c3ccnc(F)c3)n2)c2cc(-c3cn4nc(OC)sc4n3)oc2c1`
label 1

// same read-out, input: COc1cc(OCc2cccc(-c3ccc(OC4CCCCO4)cc3)c2)c2cc(-c3cn4nc(OC)sc4n3)oc2c1 (stereo not drawn)
label 0

###

Could you please report measured pIC50 for the items listed next?
target: PAR4 (Homo sapiens (Human), UniProt Q96RI0); assay: FLIPR assay in PAR4-expressing HEK293 cells (calcium mobilization); type: cell-based; conditions: PAR4 antagonist activity, FLIPR assay as described in Example A
Just the number, please; pIC50 means minus log10 of the concentration in mol/L.

So what pIC50 did COc1cc(OCc2cccc(-c3ncccn3)c2)c2cc(-c3cn4nc(OC)sc4n3)oc2c1 [Example 3] get with PAR4 (Homo sapiens (Human), UniProt Q96RI0)?
8.51

// same read-out, input: COc1cc(OCc2cccc(-c3cnc(OC)nc3OC)c2)c2cc(-c3cn4nc(OC)sc4n3)oc2c1 [Example 19]
8.62

// same read-out, input: COc1cc(OCc2cccc(-c3ccc(C(=O)OC(C)(C)C)nc3)c2)c2cc(-c3cn4nc(OC)sc4n3)oc2c1 [Example 60]
8.38

// same read-out, input: COc1cc(OCc2cccc(-c3csc(C)n3)c2)c2cc(-c3cn4nc(OC)sc4n3)oc2c1 [Example 11]
8.44

// same read-out, input: COc1cc(OCc2cccc(-c3ccc(O)cn3)c2)c2cc(-c3cn4nc(OC)sc4n3)oc2c1 [Example 91]
8.04

// same read-out, input: COc1cc(OCc2cccc(C3(F)CCOCC3)n2)c2cc(-c3cn4nc([C@H](C)F)sc4n3)oc2c1 [Example 114]
9.51

// same read-out, input: COc1cc(OCc2cccc(-c3ccc(O)cc3)c2)c2cc(-c3cn4nc(OC)sc4n3)oc2c1 [Example 90]
8.31

// same read-out, input: COc1cc(OCc2cccc(C3(O)CCOCC3)n2)c2cc(-c3cn4nc([C@H](C)F)sc4n3)oc2c1 [Example 110]
9.39

// same read-out, input: CSc1nn2cc(-c3nc4c(OCc5ccccc5-c5ccccc5)cccc4o3)nc2s1 [Example 80]
5.50

// same read-out, input: COc1cnc(-c2cccc(COc3cc(Cl)cc4oc(-c5cn6nc(OC)sc6n5)cc34)c2)cn1 [Example 108]
8.84

// same read-out, input: COc1cc(OCc2cccc(-c3cnc(C#N)cn3)c2)c2cc(-c3cn4nc(OC)sc4n3)oc2c1 [Example 42]
8.98

// same read-out, input: COc1cc(OCc2ccnc(C3CC3)n2)c2cc(-c3cn4nc(OC)sc4n3)oc2c1 [Example 103]
8.86

// same read-out, input: COc1cc(OCc2cccc(-c3ccc(F)cn3)c2)c2cc(-c3cn4nc(C(C)(F)F)sc4n3)oc2c1 [Example 67]
8.34

// same read-out, input: COc1cc(OCc2cccc(-c3cnc(OC)cc3C)c2)c2cc(-c3cn4nc(OC)sc4n3)oc2c1 [Example 51]
8.92

// same read-out, input: COc1ccc(-c2nccc(COc3cc(OC)cc4oc(-c5cn6nc(OC)sc6n5)cc34)n2)cc1 [Example 100]
9.12

// same read-out, input: COc1cc(OCc2cccc(-c3ccc4c(c3)OCO4)c2)c2cc(-c3cn4nc(OC)sc4n3)oc2c1 [Example 18]
8.46
